# MEASUREMENT_NOTES: Irreversible inhibition of Saccharomyces cerevisiae alpha-glucosidase using PNPG as substrate by Kitz-Wilson plot analysis
ASSAY_READOUT: Ki (mM)
Give bare numbers, in mM.

Summary for this compound, N#Cc1ccc(C(=[N+]=[N-])[C@H]2O[C@H](CO)[C@@H](O)[C@H](O)[C@H]2O)cc1 : Ki is 2.16

* * *

# MEASUREMENT_NOTES: Inhibition of Saccharomyces cerevisiae alpha-glucosidase using PNPG as substrate incubated for 40 mins prior to substrate addition measured after 5 mins by spectrophotometry
ASSAY_READOUT: IC50 (µM)
Give bare numbers, in µM.

Summary for this compound, N#Cc1ccc(C(=[N+]=[N-])[C@H]2O[C@H](CO)[C@@H](O)[C@H](O)[C@H]2O)cc1 : IC50 is 20.6

* * *

# MEASUREMENT_NOTES: Half life of the compound in buffer at 50 uM at pH 3.0 by UV-vis spectrophotometric analysis
# Format: physicochemical
ASSAY_READOUT: half-life at 50 µM
Express the reported value numerically, then name its unit.

Summary for this compound, N#Cc1ccc(C(=[N+]=[N-])[C@H]2O[C@H](CO)[C@@H](O)[C@H](O)[C@H]2O)cc1 : half-life at 50 µM is 11 s
